Where do the numbers come from? From patent US9133128B2.

# testedSystem: CB1 (Homo sapiens, UniProt P21554)
# Construct: expressed in transfected cells; host or cells: CHO-K1 (membranes)
# Sequence (P21554 whole entry): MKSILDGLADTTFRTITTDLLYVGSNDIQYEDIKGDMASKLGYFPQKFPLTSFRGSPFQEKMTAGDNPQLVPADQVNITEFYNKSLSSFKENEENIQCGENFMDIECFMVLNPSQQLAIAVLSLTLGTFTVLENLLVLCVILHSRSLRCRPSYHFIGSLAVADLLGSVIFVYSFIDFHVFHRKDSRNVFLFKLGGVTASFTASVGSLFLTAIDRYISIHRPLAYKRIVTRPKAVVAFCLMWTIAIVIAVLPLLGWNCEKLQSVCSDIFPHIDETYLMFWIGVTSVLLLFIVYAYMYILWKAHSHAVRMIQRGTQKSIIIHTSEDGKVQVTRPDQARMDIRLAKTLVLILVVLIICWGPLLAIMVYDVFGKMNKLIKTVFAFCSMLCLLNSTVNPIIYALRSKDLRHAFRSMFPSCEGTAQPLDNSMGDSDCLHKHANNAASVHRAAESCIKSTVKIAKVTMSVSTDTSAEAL
# protocolDescription: Displacement of [3H]CP55940 in membranes of CHO-K1 cells over-expressing CB1
# Assay type: binding
# conditionDetails: Table 4; CB2 Ki over CB1 Ki
metricName: Binding Selectivity using CP55940 Displacement

{"lineNotation": "CC(=O)NC1(c2ccccc2)CCN(C(=O)c2nn(-c3ccc(Cl)cc3Cl)c(-c3ccc(Cl)cc3)c2C)CC1", "testedSystem": "CB1 (Homo sapiens, UniProt P21554)", "obsValue": 3.4}
{"lineNotation": "Cc1c(C(=O)N2CCC(NC(=O)NC(C)C)(c3ccccc3)CC2)nn(-c2ccc(Cl)cc2Cl)c1-c1ccc(Cl)cc1", "testedSystem": "CB1 (Homo sapiens, UniProt P21554)", "obsValue": 364.0}
{"lineNotation": "Cc1c(C(=O)N2CCC(C(=O)NC(C)(C)C)(c3ccccc3)CC2)nn(-c2ccc(Cl)cc2Cl)c1-c1ccc(Cl)cc1", "testedSystem": "CB1 (Homo sapiens, UniProt P21554)", "obsValue": 421.6}
{"lineNotation": "Cc1c(C(=O)N2CCC(N)(c3ccccc3)CC2)nn(-c2ccc(Cl)cc2Cl)c1-c1ccc(Cl)cc1", "testedSystem": "CB1 (Homo sapiens, UniProt P21554)", "obsValue": 10.8}

----------
# testedSystem: CB1 (Homo sapiens)
# Construct: expressed in transfected cells; host or cells: CHO-K1 (membranes)
# protocolDescription: Displacement of [3H]CP55940 in membranes of CHO-K1 cells over-expressing CB1
# Assay type: binding
# conditionDetails: Table 4; read-out: Ki (nM) v. [3H] CP55940 at CB1

{"lineNotation": "Cc1c(C(=O)N2CCC(NC(=O)NC(C)(C)C)(c3ccccc3)CC2)nn(-c2ccc(Cl)cc2Cl)c1-c1ccc(Cl)cc1", "testedSystem": "CB1 (Homo sapiens)", "unitsSymbol": "nM", "Ki": 47.1}
{"lineNotation": "Cc1c(C(=O)N2CCC(C(N)=O)(c3ccccc3)CC2)nn(-c2ccc(Cl)cc2Cl)c1-c1ccc(Cl)cc1", "testedSystem": "CB1 (Homo sapiens)", "unitsSymbol": "nM", "Ki": 3.44}
{"lineNotation": "Cc1c(C(=O)N2CCC(O)(c3ccccc3)CC2)nn(-c2ccc(Cl)cc2Cl)c1-c1ccc(N(C)C)cc1", "testedSystem": "CB1 (Homo sapiens)", "unitsSymbol": "nM", "Ki": 384}
{"lineNotation": "Cc1c(C(=O)N2CCC(NC(=O)NC(C)C)(c3ccccc3)CC2)nn(-c2ccc(Cl)cc2Cl)c1-c1ccc(Cl)cc1", "testedSystem": "CB1 (Homo sapiens)", "unitsSymbol": "nM", "Ki": 13.5}
{"lineNotation": "Cc1c(C(=O)N2CCC(NS(C)(=O)=O)(c3ccccc3)CC2)nn(-c2ccc(Cl)cc2Cl)c1-c1ccc(Cl)cc1", "testedSystem": "CB1 (Homo sapiens)", "unitsSymbol": "nM", "Ki": 7.27}
{"lineNotation": "CCCCNC(=O)NC1(c2ccccc2)CCN(C(=O)c2nn(-c3ccc(Cl)cc3Cl)c(-c3ccc(Cl)cc3)c2C)CC1", "testedSystem": "CB1 (Homo sapiens)", "unitsSymbol": "nM", "Ki": 15.5}
{"lineNotation": "CCCCCCNC(=O)NC1(c2ccccc2)CCN(C(=O)c2nn(-c3ccc(Cl)cc3Cl)c(-c3ccc(Cl)cc3)c2C)CC1", "testedSystem": "CB1 (Homo sapiens)", "unitsSymbol": "nM", "Ki": 38.8}
{"lineNotation": "Cc1c(C(=O)N2CCC(C(N)=O)(c3ccccc3)CC2)nn(-c2ccc(Cl)cc2Cl)c1-c1ccc(Br)cc1", "testedSystem": "CB1 (Homo sapiens)", "unitsSymbol": "nM", "Ki": 14.5}
{"lineNotation": "CCNC(=O)NC1(c2ccccc2)CCN(C(=O)c2nn(-c3ccc(Cl)cc3Cl)c(-c3ccc(Cl)cc3)c2C)CC1", "testedSystem": "CB1 (Homo sapiens)", "unitsSymbol": "nM", "Ki": 15}
{"lineNotation": "Cc1c(C(=O)N2CCC(NC(=O)OC(C)(C)C)(c3ccccc3)CC2)nn(-c2ccc(Cl)cc2Cl)c1-c1ccc(Cl)cc1", "testedSystem": "CB1 (Homo sapiens)", "unitsSymbol": "nM", "Ki": 42.3}
{"lineNotation": "CCNC1(C(N)=O)CCN(C(=O)c2nn(-c3ccc(Cl)cc3Cl)c(-c3ccc(Cl)cc3)c2C)CC1", "testedSystem": "CB1 (Homo sapiens)", "unitsSymbol": "nM", "Ki": 78.4}
{"lineNotation": "Cc1c(C(=O)N2CCC(O)(c3ccccc3)CC2)nn(-c2ccc(Cl)cc2Cl)c1-c1ccc(Cl)cc1", "testedSystem": "CB1 (Homo sapiens)", "unitsSymbol": "nM", "Ki": 67.4}
{"lineNotation": "CC(=O)NC1(c2ccccc2)CCN(C(=O)c2nn(-c3ccc(Cl)cc3Cl)c(-c3ccc(Cl)cc3)c2C)CC1", "testedSystem": "CB1 (Homo sapiens)", "unitsSymbol": "nM", "Ki": 62.6}
